B1: library; numbered along this chain (parent)
chain: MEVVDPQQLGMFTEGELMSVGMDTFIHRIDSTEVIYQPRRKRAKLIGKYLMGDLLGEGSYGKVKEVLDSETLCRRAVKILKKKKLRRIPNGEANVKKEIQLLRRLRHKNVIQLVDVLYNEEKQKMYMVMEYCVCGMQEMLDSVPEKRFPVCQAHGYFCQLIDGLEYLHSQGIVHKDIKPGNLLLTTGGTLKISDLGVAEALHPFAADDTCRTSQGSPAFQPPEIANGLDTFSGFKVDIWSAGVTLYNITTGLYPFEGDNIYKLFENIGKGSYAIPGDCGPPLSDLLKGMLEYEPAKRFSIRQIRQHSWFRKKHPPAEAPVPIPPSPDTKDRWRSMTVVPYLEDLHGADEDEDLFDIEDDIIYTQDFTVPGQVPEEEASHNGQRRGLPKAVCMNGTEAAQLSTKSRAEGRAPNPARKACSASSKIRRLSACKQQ

Variants of: B1
EXPERIMENT NOTES: STK11 functional score (HeLa growth suppression), rescaled enrichment; synonymous median = 1, nonsense median = 0 (normalised score)
CONDITIONS USED: with HeLa; variant type: missense
OBSERVED PROPERTY: STK11 functional score

I46C : 1.17
D359L : 1.53
T363V : 1.2
G270I : 0.821
T250F : 1.14
M125I : 1.11
A153D : -0.157
P314A : 1.13
N380P : 1.59
K403D : 1.53
E291S : 1.38
A389C : 1.51
G61C : 1.13
C132A : 1.47
P411S : 1.23
L386Q : 1.37
A389D : 1.2
S422A : 1.5
L9H : 1.67
E98T : 0.259
P89N : 1.67
V66I : 0.557

From: the supplement of paper PMC12338614
